Ref: PubChem BioAssay AID180

Reported T/C is given for each of the following compounds.
Tested on: BDF1 mice, Adenocarcinoma 755 s.c., tumor weight T/C
Experiment: NCI In Vivo Anticancer Drug Screen. Data for tumor model Adenocarcinoma 755 (subcutaneous) in B6D2F1 (BDF1) mice
Conditions: endpoint: mean tumor weight; dose: 25.0 mg/kg/injection; schedule: Q01DX011 (ip); vehicle: methylcellulose (MC); higher = larger tumour

// solved cases for T/C follow
>>> print(df.to_string())
                                   compound   value_reported
0            CCN(CC)C(=O)CSc1ncnc2nc[nH]c12  43 % of control
1  CS(=O)(=O)OCCC(=O)N1CCC(CCC2CCN(C(=O)CCOS(C)(=O)=O)CC2)CC1  79 % of control

Ask: Given CCC(C)Cn1cnc2c(SCC(=O)O)nc(N)nc21 (stereo not given) , state its recorded T/C.
Reply: 78 % of control

Ask: Given CS(=O)(=O)OCC(=O)N1CCN(C(=O)COS(C)(=O)=O)CC1 , state its recorded T/C.
Reply: 63 % of control

Ask: Given Cn1c(=O)c2c(nc(/N=C/c3ccccc3)n2C)n(C)c1=O , state its recorded T/C.
Reply: 51 % of control

Ask: Given Cn1c(=O)c2c(nc(COCc3nc4c(c(=O)n(C)c(=O)n4C)n3C)n2C)n(C)c1=O , state its recorded T/C.
Reply: 60 % of control

Ask: Given Cc1ccc2ccccc2c1CSc1nc(N)nc2c1ncn2CC(C)C , state its recorded T/C.
Reply: 115 % of control

----------
System: BDF1 mice, Adenocarcinoma 755 s.c., tumor weight T/C
Test: NCI In Vivo Anticancer Drug Screen. Data for tumor model Adenocarcinoma 755 (subcutaneous) in B6D2F1 (BDF1) mice
Conditions: endpoint: mean tumor weight; dose: 30.0 mg/kg/injection; schedule: Q01DX011 (ip); vehicle: methylcellulose (MC); higher = larger tumour
Reported T/C is given for each of the following compounds.

// solved cases for T/C follow
In [3]: df
Out[3]:
                                   compound  property   value_reported
0                     Cn1c(N)cc(=O)[nH]c1=S       T/C  79 % of control
1  Nc1nc(SCc2ccc(Br)cc2)c2ncn(C3OC(CO)C(O)C3O)c2n1 (stereo not given)       T/C  41 % of control

Ask: Given NC1(C(=O)O)CCCC1 , state its recorded T/C.
Reply: 12 % of control

Ask: Given CC(=O)Nc1nc(SCc2ccccc2)c2ncn(C(C)=O)c2n1 , state its recorded T/C.
Reply: 2 % of control

Ask: Given O=C(Nc1ccc(C2=NCCS2)cc1)c1ccc(C(=O)Nc2ccc(C3=NCCS3)cc2)cc1 , state its recorded T/C.
Reply: 118 % of control

----------
Reported T/C is given for each of the following compounds.
System: BDF1 mice, Adenocarcinoma 755 s.c., tumor weight T/C
Test: NCI In Vivo Anticancer Drug Screen. Data for tumor model Adenocarcinoma 755 (subcutaneous) in B6D2F1 (BDF1) mice
Conditions: endpoint: mean tumor weight; dose: 12.5 mg/kg/injection; schedule: Q01DX011 (ip); vehicle: methylcellulose (MC); higher = larger tumour

// solved cases for T/C follow
>>> df
                                   compound  property    value_reported
0                CS(=O)(=O)OCCCCOS(C)(=O)=O       T/C  119 % of control
1               CNS(=O)(=O)c1ncnc2nc[nH]c12       T/C   44 % of control
2                     CC(C)n1cc2c(N)ncnc2n1       T/C   55 % of control
3  Nc1nc(=S)c2ncn(C3OC(COC(=O)c4ccccc4)C(OC(=O)c4ccccc4)C3OC(=O)c3ccccc3)c2[nH]1 (stereo unspecified)       T/C   52 % of control
4  Nc1nc(SCc2cccc(Br)c2)c2ncn(C3OC(CO)C(O)C3O)c2n1 (stereo unspecified)       T/C    1 % of control

Continue with the compound presented below.
Ask: Given CCNS(=O)(=O)c1ncnc2nc[nH]c12 , state its recorded T/C.
Reply: 36 % of control
